# TEST SYSTEM: LIGHT without residues 81-84, stably expressed on EL4 cells (EL4-NC-LIGHT)
# ASSAY NAME: cell-based or functional assay
Provide the reported IC50, inhibition of IL-8 secretion, HT-29 + EL4-NC-LIGHT cells of each item.
Enter your answer as a number in nM; do not include the unit.

Input: Query: IC50, inhibition of IL-8 secretion, HT-29 + EL4-NC-LIGHT cells; subject: 3D12 chimeric IgG4 mAb (antibody, V domains shown, Chimeric human IgG4 (S-to-P, L-to-E) with human CL, as m1; also called Parental 3D12; 03D12) VH: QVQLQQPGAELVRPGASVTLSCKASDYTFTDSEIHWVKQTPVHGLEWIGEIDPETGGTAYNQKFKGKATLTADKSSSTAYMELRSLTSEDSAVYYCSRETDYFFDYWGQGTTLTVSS VL: DIQMTQSPASLSASVGETVTITCGASENIYGALNWYQRKQGKSPQLLIYGATNLADGMSSRFSGSGSGRQYSLKISSLHPDDVATYYCQNVLSTPWTFGGGTKLEIK
Output: 0.1

Input: State the recorded IC50, inhibition of IL-8 secretion, HT-29 + EL4-NC-LIGHT cells for this entry: 3B04 chimeric IgG4 mAb (antibody, V domains shown, also called Parental 3B04) VH: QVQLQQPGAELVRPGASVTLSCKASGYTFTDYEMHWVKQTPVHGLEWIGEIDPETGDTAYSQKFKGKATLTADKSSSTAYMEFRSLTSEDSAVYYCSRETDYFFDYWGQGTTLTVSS VL: DIQMTQTPASLSASVGETVTITCGASENIYGALNWYQRKQGKSPQLLIYGATNLADGMSSRFSGSGSGRQYSLKISSLHPDDFATYYCQNVLTTPWTFGGGTKLEIK
Output: 0.2

Input: Please give the measured IC50, inhibition of IL-8 secretion, HT-29 + EL4-NC-LIGHT cells for this binder: 2B11 chimeric IgG4 mAb (antibody, V domains shown, Chimeric human IgG4 (S-to-P, L-to-E) with human CL, as m1; Often misprinted 2B111; also called Parental 2B11; 2B111) VH: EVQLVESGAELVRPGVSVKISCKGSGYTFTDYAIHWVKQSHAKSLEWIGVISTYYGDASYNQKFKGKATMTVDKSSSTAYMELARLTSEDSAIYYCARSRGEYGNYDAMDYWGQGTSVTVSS VL: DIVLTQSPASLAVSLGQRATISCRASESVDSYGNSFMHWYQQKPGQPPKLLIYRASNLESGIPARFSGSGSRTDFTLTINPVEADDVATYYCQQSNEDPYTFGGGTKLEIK
Output: 0.6
